tested on: Hs-578T; assay: NCI tumour cell line growth inhibition, 48 h
The source made the active and inactive calls. Cut-off read from the data, not from the text of the source: active = GI50 up to about 1.1 µM and inactive = higher.
Could you please report measured GI50 for the items listed next?

Please look at this compound and report its GI50: COc1cc(NS(C)(=O)=O)ccc1NCc1c[nH]c2ccc3ncccc3c12
19.7 µM (inactive)

Please look at this compound and report its GI50: O=c1[nH]c2ccc(C(F)(F)F)cc2nc1-c1ccccc1
59.6 µM (inactive)

Please look at this compound and report its GI50: CSC1=N/C(=C\c2ccc(Cl)cc2)C(=O)N1CN1CCOCC1
33 µM (inactive)

Please look at this compound and report its GI50: CC1(C)C=C(/C=N/Nc2ccc(Br)cc2)C(C#N)=C(O)C1(C#N)C#N
63.8 µM (inactive)

Please look at this compound and report its GI50: O=C1CS[C@@](CC(c2ccc(Cl)cc2)c2ccc(Cl)cc2)(c2ccc(Cl)cc2)N1
38.2 µM (inactive)

---

system: MDA-MB-231; assay: NCI tumour cell line growth inhibition, 48 h
Active and inactive are the calls of the source. Rule as the data show it: active = GI50 up to about 1.1 µM and inactive = higher.
Write down the outcome that applies. Available outcomes: active, inactive

Hi, do you know how O=C1/C(=C/C=C/c2ccccc2)N=C(c2ccccc2)N1C1Nc2cc3c(cc2S1)NC(N1C(=O)/C(=C/C=C/c2ccccc2)N=C1c1ccccc1)S3 (configuration not stated) came out in this test?
inactive

Hi, do you know how CN(C)C(=O)C(F)(F)C(c1ccc(C(F)(F)F)cc1)C1C(=O)N(C)C(=O)N(C)C1=O (configuration not stated) came out in this test?
inactive

Hi, do you know how COC(=O)C(CCC1CC(OC)N(C(=O)OCc2ccccc2)C1)/N=C/c1ccccc1 (configuration not stated) came out in this test?
inactive

Hi, do you know how O=C1/C(=C/c2ccccc2)CCCc2ccccc21 came out in this test?
inactive

Hi, do you know how COc1ccc(COCC[C@H](C)OC2OC(CO[Si](C)(C)C(C)(C)C)C(O)C(O)C2O)cc1 (some centres not stated) came out in this test?
inactive

Hi, do you know how COc1ccc(C2c3c[nH]nc3CC3CCCCC32)cc1 (configuration not stated) came out in this test?
inactive

Hi, do you know how CCOC(=O)C12CCC(c3c(C)cccc3C)(O1)C(C(=O)OC)=C2C(=O)OC (configuration not stated) came out in this test?
inactive

Hi, do you know how NP1(Oc2ccc(F)cc2)=NP(N)(Oc2ccc(F)cc2)=NP(Oc2ccc(F)cc2)(Oc2ccc(F)cc2)=N1 (configuration not stated) came out in this test?
inactive

Hi, do you know how CC1(C)C=C(/C=N/Nc2ccc(Br)cc2)C(C#N)=C(O)C1(C#N)C#N came out in this test?
inactive

Hi, do you know how CCc1ncnc2cc(OCC3CO3)c(OC)cc12 (configuration not stated) came out in this test?
inactive

Hi, do you know how N#Cc1c(C#N)c(SSc2c(C#N)c(C#N)c(N)n2-c2ccccc2)n(-c2ccccc2)c1N came out in this test?
inactive

Hi, do you know how COc1ccc2nc3c([N+](=O)[O-])ccc4c3c(c2c1)N(CCCN(C)C)C(=S)N4CCCN(C)C came out in this test?
inactive

Hi, do you know how CC1=NN(c2nc(N)nc(/C(C#N)=C\c3cccc([N+](=O)[O-])c3)n2)C(C)(C)C1 came out in this test?
inactive

Hi, do you know how COCc1cc2c(s1)C(=O)C1=C(C2=O)C2(C=C(Br)C(=O)C(Br)=C2)CCN1 came out in this test?
inactive

Hi, do you know how COc1cc(O)ccc1C(=S)SC came out in this test?
inactive

Hi, do you know how COc1cc(/C=C\c2ccc(C)cc2)cc(OC)c1OC came out in this test?
active

Hi, do you know how CCOC(=O)[C@@H]1C[C@H]1c1ccc(O)c(O)c1 came out in this test?
inactive

Source of measurements: ChEMBL document CHEMBL1201862
